target under test: T1, CD27 expressed on the cell surface (HT1080_CD27 cells) (human, UniProt P26842 20-260); also: test concentration or dose not given here
T1 sequence (looked up): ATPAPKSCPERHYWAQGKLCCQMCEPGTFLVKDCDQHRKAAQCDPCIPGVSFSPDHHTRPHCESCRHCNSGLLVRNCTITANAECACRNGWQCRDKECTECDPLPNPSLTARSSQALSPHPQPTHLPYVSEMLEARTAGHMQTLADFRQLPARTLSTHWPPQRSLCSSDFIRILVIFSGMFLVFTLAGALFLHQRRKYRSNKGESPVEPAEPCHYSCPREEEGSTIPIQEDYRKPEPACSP
protocol description: cell-based or functional assay
observable: IL-8, cross-linked by F(ab')2 fragment [abs. corr.] (abs. corr.)

binder | endpoint unit | quantitative result
P018.S.07.A.C06 (antibody, V domains shown, V regions on human Ig constant parts; also called AB27_121) VH: QSVEESGGRLVTPGTPLTLTCTVSGFSLNHYHMCWVRQAPGKGLEYIGRIDNSGYIVYASWAKGRFTISKTSTTVDLKITSPTTADTATYFCGKYYSGGSYDLWGQGTLVTVSS VL: AQVLTQTASSVSAAVGGTVTISCQSSQSVWNNNWLAWYQQKPGQPPKLLIYETSKLASGVPSRFKGSGSGTQFTLTISGVQSDDAATYYCQGEFSCSSDDCNAFGGGTEVVVK | abs. corr. | 1.04
P018.S.03.A.D02 (antibody, V domains shown, V regions on human Ig constant parts; also called AB27_47) VH: QSVEESGGRLVTPGTPLTLTCTVSGLSLSSYDMSWVRQAPGKGLEWIGYIWSGGTTDYASWAKGRFTISKTSTTVDLKIISPTTEDTATYFCARGYVEFDLWGPGTLVTVSS VL: DPVLTQTPPSVSAAVGGTVTINCQSSQSLYSNNYLSWYQQKPGQPPKVLIWPASSLASGVPSRFKGSGSGTQFTLTISELQSDDAATYYCQGTFYDSGWLSTFGGGTEVVVK | abs. corr. | 1.47
P018.S.06.A.F03 (antibody, V domains shown, V regions on human Ig constant parts; also called AB27_108) VH: QSLEESGGDLVRPGASLTLTCTASGLSFSDRYWISWVRQAPGKGLEWIASIYTGSDGVADYATWAKGRVTISKTSSTTVTLQMTSLTAADTATYFCARDREYGSNTGVYSLWGPGTLVTVSS VL: DVLMTQTPSSVSPAVGGTVTIKCQASQNIYSNLAWYQQKPGQRPKLLVYDASNLEYGVPSRFKGSGSGTEYTLTISDLESADAANYYCQCTYYGNNYITFGGGTEVVVR | abs. corr. | 1.08
